List of IC50 tested on Aromatase (Homo sapiens, UniProt P11511).
Sequence (P11511 whole entry): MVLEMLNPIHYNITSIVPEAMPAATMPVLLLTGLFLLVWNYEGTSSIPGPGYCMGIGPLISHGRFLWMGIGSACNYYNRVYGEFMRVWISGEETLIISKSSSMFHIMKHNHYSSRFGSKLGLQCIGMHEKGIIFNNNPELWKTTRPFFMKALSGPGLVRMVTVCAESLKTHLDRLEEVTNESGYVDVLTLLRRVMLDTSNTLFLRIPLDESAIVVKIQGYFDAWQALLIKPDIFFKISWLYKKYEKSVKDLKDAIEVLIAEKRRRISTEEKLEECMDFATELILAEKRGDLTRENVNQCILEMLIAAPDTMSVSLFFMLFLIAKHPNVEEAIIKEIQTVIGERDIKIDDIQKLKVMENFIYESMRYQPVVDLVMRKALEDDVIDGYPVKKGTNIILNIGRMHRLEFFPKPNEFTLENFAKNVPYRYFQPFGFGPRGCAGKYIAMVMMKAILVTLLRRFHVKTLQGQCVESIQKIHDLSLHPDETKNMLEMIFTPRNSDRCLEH
Number first, unit second.

Clc1ccc(C(c2ccc3[nH]ccc3c2)n2ccnc2)cc1 (single isomer, unassigned; (+)) = 9 nM

Given the molecule Clc1ccc(C(c2ccc3[nH]ccc3c2)n2ccnc2)cc1 (stereo in doubt; (-)-8b1) and test system Aromatase (Homo sapiens, UniProt P11511), the measured IC50 is 45 nM
